test system: SARS-CoV-2; type: cell-based; settings: read-out: IC50 (half-maximal inhibitory concentration), SYRA
measurementName: pIC50
As a rule, pIC50 stands for the negative log10 of the concentration, concentration in M.

Can you look up the measured pIC50 of [Cl-].[Cl-].[Ti+4].c1cc[cH-]c1.c1cc[cH-]c1 [TiCp2Cl2, Titanocene dichloride] for me?
4.33

---

tested on: Calu-3 cells; experiment: Cytotoxicity, CellTiter-Glo 2.0 Luminescent Cell Viability Assay; conditions: read-out: CC50 (half-maximal cytotoxic concentration), 48h exposure
CC50 reference
Report the figure in µM without appending any unit label.

Cl.[Cl-].[Cl-].[Cl-].[Ru+3].c1ccc2[nH]ncc2c1.c1ccc2[nH]ncc2c1.c1ccc2[nH]ncc2c1; 60

The record that follows has no CC50 shown yet.
Can you look up the measured CC50 of "CCOC(=O)CN(C)C1=[S+][Au-]([Br])([Br])[S]1" for me?
19
